Test system: HUVECs
Procedure Text: Tube formation (tubulogenesis) assay in HUVECs, 18 h
Type: cell-based, human
Experimental Context: Homo sapiens, HUVEC, 18 h, HUVECs, 10.00 µM, 0.00 µM = 100.00, read-out: huvec.mtl.18hr
Counter-ions that a name gives are not always drawn.
Please assign f whenever activity at 10 µM is at or above 80%, and t whenever it is below.

Field: example entries. Status: answers known.
O=S(=O)(O)Oc1ccc(-c2cccc(Cl)c2)cc1Cl [4-yl PCB 11 sulfate]    f
Oc1ccc(O)c(-c2ccc(Cl)cc2)c1    t
Oc1cccc(-c2ccc(Cl)cc2)c1    t

Enquiry: Would you kindly verify if activity at 10 µM of O=S(=O)(O)Oc1cc(Cl)c(-c2cc(Cl)ccc2Cl)cc1Cl [4-yl PCB 52 sulfate] is strictly less than 80%?
Return: f

Enquiry: Determine if O=S(=O)(O)Oc1ccc(-c2ccc(Cl)cc2)cc1 [4'-yl PCB 3 sulfate] shows activity at 10 µM strictly lower than 80%.
Return: f

Enquiry: In plain terms, does Clc1ccc(Cl)c(-c2cc(Cl)ccc2Cl)c1 come in under 80% for activity at 10 µM?
Return: f

====

System: iCell endothelial cells (human iPSC-derived ECs)
Procedure Text: Tube formation (tubulogenesis) assay in iCell endothelial cells, 18 h
Assay type: cell-based
Experimental Context: Homo sapiens, Endothelial cell, iPSC-EC tube formation, 18 hr, 100.00 µM, 0.00 µM control = 100.00, read-out: endo.mtl.18hr
Structures can show the parent of a compound that is named as a salt.
Please mark satisfied if the recorded activity at 100 µM is equal to or greater than 60%, and not satisfied if it falls below.

These solved cases illustrate the format of a correct answer.
COc1ccc(-c2ccc(Cl)cc2)cc1    satisfied
Clc1cccc(-c2cccc(Cl)c2)c1    satisfied
Oc1cc(Cl)cc(-c2cccc(Cl)c2)c1    not satisfied

Turning to the following compound.
Enquiry: Answer whether activity at 100 µM of O=S(=O)(O)Oc1cc(Cl)c(-c2cc(Cl)ccc2Cl)cc1Cl [4-yl PCB 52 sulfate] is greater than or equal to 60%.
Return: not satisfied

====

The reader will find reported minimal effective concentration values listed item by item below.
Tested on: HUVECs
Procedure Text: Tube formation (tubulogenesis) assay in HUVECs, 18 h
Format: cell-based, human
Experimental Context: Homo sapiens, HUVEC, 18 h, HUVEC, tube formation tta, read-out: POD huvec.tta.18hr
Description: Similar to the cultivation of iCell®-endothelial cells, HUVEC maintenance and experimentation are detailed elsewhere ([Iwata et al. 2017]). […] Tube formation assays were performed on Geltrex™ LDEV-free reduced growth factor basement membrane using both iCell®-endothelial cells and HUVECs in 384-well format exactly as detailed in Iwata et al. ([2017]). […] Images were analyzed with the angiogenesis module software within MetaXpress™ (Molecular Devices). […]
Counter-ions that a name gives are not always drawn.
Report as a plain number; the unit µM is understood.

A selection of reference data follows.
Oc1cccc(-c2ccc(Cl)cc2)c1    3.65
Oc1cc(Cl)cc(-c2cccc(Cl)c2)c1    100
O=C1C=CC(=O)C(c2ccc(Cl)cc2)=C1    0.65

Enquiry: Endpoint output: minimal effective concentration of O=S(=O)(O)Oc1ccc(-c2cccc(Cl)c2)cc1Cl [4-PCB 11 sulfate] . Value?
Return: 100

Enquiry: Endpoint output: minimal effective concentration of COc1ccc(-c2cccc(Cl)c2)cc1Cl . Value?
Return: 100

Enquiry: Need minimal effective concentration of O=S(=O)(O)Oc1cccc(-c2ccc(Cl)cc2)c1 [3'-PCB 3 sulfate] , thanks.
Return: 100

Enquiry: Can you look up the measured minimal effective concentration of Oc1ccc(-c2cccc(Cl)c2)cc1Cl for me?
Return: 100

Enquiry: Request the reported minimal effective concentration associated with Oc1ccc(-c2ccc(Cl)cc2)cc1
Return: 5.36

Enquiry: Look up minimal effective concentration: O=S(=O)(O)Oc1cc(Cl)c(-c2cc(Cl)ccc2Cl)cc1Cl [4-PCB 52 sulfate]
Return: 100

Enquiry: Entry under review: Clc1ccc(-c2cc(Cl)c(Cl)c(Cl)c2)cc1Cl . Reported minimal effective concentration?
Return: 100
